These entries and their values trace back to patent US8183414B2.

molecular target: α2B adrenergic receptor (Homo sapiens); construct: expressed in transfected cells; test: RSAT (Receptor Selection and Amplification Technology) assay, α2B; type: cell-based; settings: relative efficacy compared to a standard full agonist

[
  {
    "COMPOUND": "Cc1cccc(C(Cc2ccncc2)NC2=NCCC2)c1C (single isomer, unassigned) [Compound 18]",
    "RSAT Rel Eff α2B": "(0.93)"
  },
  {
    "COMPOUND": "Clc1ccc(CC(NC2=NCCC2)c2cccc(Cl)c2Cl)cc1Cl (stereo not shown)",
    "RSAT Rel Eff α2B": "(0.93)"
  }
]

---

Target: α2B adrenergic receptor (Homo sapiens, UniProt P18089)
Construct: expressed in transfected cells
Sequence (P18089 1-450): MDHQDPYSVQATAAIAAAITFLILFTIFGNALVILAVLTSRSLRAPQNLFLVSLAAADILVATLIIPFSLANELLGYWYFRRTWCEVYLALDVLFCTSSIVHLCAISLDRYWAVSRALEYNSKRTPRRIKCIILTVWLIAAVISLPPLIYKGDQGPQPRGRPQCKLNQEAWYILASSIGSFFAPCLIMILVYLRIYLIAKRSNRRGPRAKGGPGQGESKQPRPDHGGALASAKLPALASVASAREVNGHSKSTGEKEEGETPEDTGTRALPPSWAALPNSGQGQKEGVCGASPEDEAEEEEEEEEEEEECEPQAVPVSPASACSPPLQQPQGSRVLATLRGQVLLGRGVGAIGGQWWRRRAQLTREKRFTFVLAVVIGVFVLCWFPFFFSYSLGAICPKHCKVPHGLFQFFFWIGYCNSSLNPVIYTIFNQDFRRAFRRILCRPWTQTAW
Assay: RSAT (Receptor Selection and Amplification Technology) assay, α2B
Type: cell-based
Conditions: cells expressing the receptor alone; receptor-mediated growth response; NA = not active; read-out: RSAT EC50 α2B
Method: Cells expressing each of the alpha-2 adrenergic receptors alone were incubated with the various compounds and a receptor-mediated growth response was measured.
pEC50: −log10 of the molar value.
# key: entry, value: pEC50

[
  {
    "COMPOUND": "Clc1ccccc1C(Cc1ccncc1)NC1=NCCC1 (stereo not shown) [Compound 4]",
    "pEC50": 7.42
  },
  {
    "COMPOUND": "Cc1ccccc1CC(NC1=NCCC1)c1cccc(Cl)c1 (stereo not shown) [Compound 9]",
    "pEC50": 8.49
  },
  {
    "COMPOUND": "Cc1c(Br)cncc1CC(NC1=NCCC1)c1cccc(Cl)c1 (stereo not shown) [Compound 32]",
    "pEC50": 7.95
  },
  {
    "COMPOUND": "Cc1cncc(CC(NC2=NCCC2)c2cccc(Cl)c2)c1C (stereo not shown) [Compound 33]",
    "pEC50": 7.70
  },
  {
    "COMPOUND": "Cc1cccc(C(Cc2ccncc2)NC2=NCCC2)c1C (stereo not shown) [Compound 2]",
    "pEC50": 8.06
  },
  {
    "COMPOUND": "Fc1c(Cl)cccc1C(Cc1ccccc1)NC1=NCCC1 (stereo not shown) [Compound 14]",
    "pEC50": 8.07
  },
  {
    "COMPOUND": "c1ccc(C(Cc2ccccn2)NC2=NCCC2)cc1 (stereo not shown) [Compound 24]",
    "pEC50": 6.67
  },
  {
    "COMPOUND": "Fc1ccc(CC(NC2=NCCC2)c2cccc(Cl)c2Cl)cc1 (stereo not shown) [Compound 11]",
    "pEC50": 8.10
  },
  {
    "COMPOUND": "Clc1ccccc1C(Cc1ccccc1)NC1=NCCC1 (stereo not shown) [Compound 10]",
    "pEC50": 7.92
  },
  {
    "COMPOUND": "c1ccc(CC(NC2=NCCC2)c2ccccc2)cc1 (stereo not shown) [Compound 3]",
    "pEC50": 7.67
  }
]

---

Target: α2B adrenergic receptor (Homo sapiens)
Construct: expressed in transfected cells
Experiment: RSAT (Receptor Selection and Amplification Technology) assay, α2B
Format: cell-based
Details: relative efficacy compared to a standard full agonist
Protocol: Cells expressing each of the alpha-2 adrenergic receptors alone were incubated with the various compounds and a receptor-mediated growth response was measured.

[
  {
    "COMPOUND": "Fc1c(Cl)cccc1C(Cc1ccccc1)NC1=NCCC1 (stereo not drawn) [Compound 14]",
    "RSAT Rel Eff α2B": "(0.96)"
  },
  {
    "COMPOUND": "Clc1ccc(Cl)c(CC(NC2=NCCC2)c2cccc(Cl)c2Cl)c1 (stereo not drawn) [Compound 16]",
    "RSAT Rel Eff α2B": "(1.04)"
  },
  {
    "COMPOUND": "Cc1cncc(CC(NC2=NCCC2)c2cccc(Cl)c2)c1 (stereo not drawn) [Compound 29]",
    "RSAT Rel Eff α2B": "(1.1)"
  },
  {
    "COMPOUND": "Clc1cccc(C(Cc2ccccc2Br)NC2=NCCC2)c1Cl (stereo not drawn) [Compound 12]",
    "RSAT Rel Eff α2B": "(0.96)"
  },
  {
    "COMPOUND": "Cc1cccc(C(Cc2ccncc2)NC2=NCCC2)c1C (stereo not drawn) [Compound 2]",
    "RSAT Rel Eff α2B": "(1.04)"
  }
]

---

# key: entry, value: pEC50
Target: α2B adrenergic receptor (Homo sapiens)
Construct: expressed in transfected cells
Sequence (P18089 1-450): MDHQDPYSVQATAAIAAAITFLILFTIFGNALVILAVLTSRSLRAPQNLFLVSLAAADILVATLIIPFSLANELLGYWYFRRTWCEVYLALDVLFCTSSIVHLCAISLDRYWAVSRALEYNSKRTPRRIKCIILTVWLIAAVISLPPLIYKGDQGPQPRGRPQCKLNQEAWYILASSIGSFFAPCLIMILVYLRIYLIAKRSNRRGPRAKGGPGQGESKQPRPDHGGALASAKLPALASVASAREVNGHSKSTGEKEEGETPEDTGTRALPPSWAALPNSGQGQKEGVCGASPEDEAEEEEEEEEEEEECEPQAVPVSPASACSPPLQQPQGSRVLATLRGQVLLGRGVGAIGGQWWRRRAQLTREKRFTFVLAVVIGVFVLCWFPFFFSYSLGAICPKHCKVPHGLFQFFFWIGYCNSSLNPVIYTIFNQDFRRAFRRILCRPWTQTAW
Test: RSAT (Receptor Selection and Amplification Technology) assay, α2B
Assay type: cell-based
Details: cells expressing the receptor alone; receptor-mediated growth response; NA = not active; read-out: RSAT EC50 α2B
pEC50: −log10 of the molar value.
QUANTITY_MEASURED: pEC50

[
  {
    "COMPOUND": "Clc1ccc(CC(NC2=NCCC2)c2cccc(Cl)c2Cl)cc1Cl (stereo not drawn) [Compound 26]",
    "OBSERVED_MEASUREMENT": 8.07
  },
  {
    "COMPOUND": "Clc1ccc(Cl)c(CC(NC2=NCCC2)c2cccc(Cl)c2Cl)c1 (stereo not drawn) [Compound 16]",
    "OBSERVED_MEASUREMENT": 7.98
  },
  {
    "COMPOUND": "Clc1cccc(C(Cc2ccccc2)NC2=NCCC2)c1Cl (stereo not drawn) [Compound 7]",
    "OBSERVED_MEASUREMENT": 8.18
  },
  {
    "COMPOUND": "Clc1cccc(C(Cc2ccccc2Br)NC2=NCCC2)c1Cl (stereo not drawn) [Compound 12]",
    "OBSERVED_MEASUREMENT": 8.06
  },
  {
    "COMPOUND": "Fc1c(Cl)cccc1C(Cc1ccncc1)NC1=NCCC1 (stereo not drawn) [Compound 5]",
    "OBSERVED_MEASUREMENT": 7.97
  },
  {
    "COMPOUND": "Cc1c(F)cccc1CC(NC1=NCCC1)c1cccc(Cl)c1Cl (stereo not drawn) [Compound 15]",
    "OBSERVED_MEASUREMENT": 7.89
  }
]
